Test: Fluorescence spectra / optical properties
Type: physicochemical
Details: Table 4
Assay Endpoint: λex (excitation wavelength) (nm)
One number for each entry, in nm.

Recorded λex (excitation wavelength), per entry:
[[record]]
molecule = "O=c1ccc2nc3ccc(O)cc3oc-2c1 [VIII, resorufin, reference compound]"
assay_endpoint = "λex (excitation wavelength)"
result_number = 571

[[record]]
molecule = "Nc1ncnc2c1nc([O-])c1cccc[n+]12 [II]"
assay_endpoint = "λex (excitation wavelength)"
result_number = 424

[[record]]
molecule = "C[n+]1c(-c2ccccc2)ccc2cc3ccc(-c4ccccc4)nc3cc21 [Compound VII]"
assay_endpoint = "λex (excitation wavelength)"
result_number = 405


Quick one: give me λex (excitation wavelength) for each item below, same order please.
1. Nc1ccc2nc3ccc(N)cc3[n+](-c3ccccc3)c2c1 [XIII, phenosafranine, reference compound]
2. [O-]c1nc2c(N[C@@H]3O[C@H](CO)[C@@H](O)[C@H]3O)ncnc2[n+]2ccccc12 [I]

520
424

These entries and their values trace back to patent US6201116A.
